system: Galium; experiment: Field test, postemergence herbicidal activity on Galium in sulfonylurea-resistant rape; type: in vivo; details: Galium, post-emergence, 672 h; sulfonylurea alone, 0.1 gram ai/ha, four weeks after the treatment; read-out: Injury of Galium % Experimental value
Can you tell me pest or weed control at 0.1 g/ha for the items I'm about to list?
Answers are plain numbers, in %.

The examples below pair each entry with its known result.
| inputSmiles | testSystem | pest or weed control at 0.1 g/ha [%] |
| --- | --- | --- |
| COC(=O)c1sccc1S(=O)(=O)NC(=O)Nc1nc(C)nc(OC)n1 | Galium | 8 |
| COc1cc(OC)nc(NC(=O)NS(=O)(=O)Nc2ccccc2C(=O)C2CC2)n1 | Galium | 9 |
| COc1cc(OC)nc(NC(=O)NS(=O)(=O)c2ncccc2C(=O)N(C)C)n1 | Galium | 1 |
| COc1cc(OC)nc(NC(=O)NS(=O)(=O)N(C)S(C)(=O)=O)n1 | Galium | 5 |

For each of the items listed, what is its pest or weed control at 0.1 g/ha?
1. COC(=O)c1ccccc1S(=O)(=O)NC(=O)Nc1nc(C)nc(OC)n1
2. COC(=O)c1ccccc1CS(=O)(=O)NC(=O)Nc1nc(OC)cc(OC)n1
3. COc1nc(C)nc(NC(=O)NS(=O)(=O)c2ccccc2Cl)n1
4. COc1nc(C)nc(NC(=O)NS(=O)(=O)c2ccccc2OCCCl)n1

Solution:
[11, 16, 10, 13]

###

test system: Chenopodium; experiment: Field test, postemergence herbicidal activity on Chenopodium in sulfonylurea-resistant rape; format: in vivo; conditions: Chenopodium, post-emergence, 672 h; sulfonylurea alone, 10 gram ai/ha, four weeks after the treatment; read-out: Injury of Chenopodium % Experimental value
Can you tell me pest or weed control at 10 g/ha for the items I'm about to list?
One number for each entry, in %.

The examples below pair each entry with its known result.
| compound | obsValue |
| --- | --- |
| COC(=O)c1sccc1S(=O)(=O)NC(=O)Nc1nc(C)nc(OC)n1 [thifensulfuron-methyl] | 8.1 |
| COc1cc(OC)nc(NC(=O)NS(=O)(=O)Nc2ccccc2C(=O)C2CC2)n1 [cyclosulfamuron] | 4.1 |
| COc1nc(C)nc(NC(=O)NS(=O)(=O)c2ccccc2Cl)n1 [chlorsulfuron] | 53.6 |
| COc1nc(C)nc(NC(=O)NS(=O)(=O)c2ccccc2OCCCl)n1 [triasulfuron] | 22.5 |
| COC(=O)c1ccccc1CS(=O)(=O)NC(=O)Nc1nc(OC)cc(OC)n1 [bensulfuron-methyl] | 12.2 |

For each of the items listed, what is its pest or weed control at 10 g/ha?
1. COc1cc(OC)nc(NC(=O)NS(=O)(=O)c2ncccc2C(=O)N(C)C)n1 [nicosulfuron]
2. COC(=O)c1ccccc1S(=O)(=O)NC(=O)Nc1nc(C)nc(OC)n1 [metsulfuron-methyl]

Solution:
4
88.4

Problem: Look up and state reported pest or weed control at 10 g/ha for COc1cc(OC)nc(NC(=O)NS(=O)(=O)N(C)S(C)(=O)=O)n1 [amidosulfuron]
Solution: 35.8
